# subject.of.test: MAO-A (Rattus norvegicus)
# Construct: human and rat tissue to obtain the isolated forms of monoamine oxidase A and B; from tissue
# Sequence (P21396 whole entry): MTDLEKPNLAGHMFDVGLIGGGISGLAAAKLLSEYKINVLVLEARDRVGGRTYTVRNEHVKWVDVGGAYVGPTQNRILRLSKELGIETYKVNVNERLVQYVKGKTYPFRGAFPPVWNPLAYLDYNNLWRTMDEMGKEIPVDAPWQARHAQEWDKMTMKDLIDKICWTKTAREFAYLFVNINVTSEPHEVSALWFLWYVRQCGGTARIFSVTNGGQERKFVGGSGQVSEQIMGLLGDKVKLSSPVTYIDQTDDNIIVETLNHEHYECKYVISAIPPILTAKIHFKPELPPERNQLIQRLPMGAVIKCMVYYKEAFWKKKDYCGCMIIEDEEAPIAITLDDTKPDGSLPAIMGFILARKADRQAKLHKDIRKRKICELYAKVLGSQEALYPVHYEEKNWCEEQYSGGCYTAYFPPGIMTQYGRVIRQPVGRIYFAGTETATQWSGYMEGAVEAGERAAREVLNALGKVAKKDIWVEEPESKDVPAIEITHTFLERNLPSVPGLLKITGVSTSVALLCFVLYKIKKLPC
# assay.notes: Kinetic parameters of suicide-type inhibition, MAO-A
# Type: biochemical, Sprague-Dawley rat
# condition: MAO-A (A..); affinity constant of the first stage; three experiments ± SEM; read-out: K1

{"mol": "C=C=CCN(CC=C=C)Cc1cc2cc(OCc3ccccc3)ccc2[nH]1", "Ki": "14100 nM"}
{"mol": "C#CCN(CC#C)Cc1cc2cc(OCc3ccccc3)ccc2n1C", "Ki": "19.8 nM"}
{"mol": "CC#CCN(CC#CC)Cc1cc2cc(OCc3ccccc3)ccc2[nH]1", "Ki": "6520 nM"}
{"mol": "CC#CCNCc1cc2cc(OCc3ccccc3)ccc2[nH]1", "Ki": "5250 nM"}
{"mol": "C=C=CCNCc1cc2cc(OCc3ccccc3)ccc2n1C", "Ki": "18.8 nM"}
{"mol": "C=C=CCNCc1cc2cc(OCc3ccccc3)ccc2[nH]1", "Ki": "347 nM"}
{"mol": "C#CCNCc1cc2cc(OCc3ccccc3)ccc2[nH]1", "Ki": "800 nM"}

* * *

# subject.of.test: MAO-B (Rattus norvegicus, UniProt P19643)
# Construct: from tissue; host or cells: Sprague-Dawley rat liver, mitochondrial fraction
# Sequence (P19643 1-520): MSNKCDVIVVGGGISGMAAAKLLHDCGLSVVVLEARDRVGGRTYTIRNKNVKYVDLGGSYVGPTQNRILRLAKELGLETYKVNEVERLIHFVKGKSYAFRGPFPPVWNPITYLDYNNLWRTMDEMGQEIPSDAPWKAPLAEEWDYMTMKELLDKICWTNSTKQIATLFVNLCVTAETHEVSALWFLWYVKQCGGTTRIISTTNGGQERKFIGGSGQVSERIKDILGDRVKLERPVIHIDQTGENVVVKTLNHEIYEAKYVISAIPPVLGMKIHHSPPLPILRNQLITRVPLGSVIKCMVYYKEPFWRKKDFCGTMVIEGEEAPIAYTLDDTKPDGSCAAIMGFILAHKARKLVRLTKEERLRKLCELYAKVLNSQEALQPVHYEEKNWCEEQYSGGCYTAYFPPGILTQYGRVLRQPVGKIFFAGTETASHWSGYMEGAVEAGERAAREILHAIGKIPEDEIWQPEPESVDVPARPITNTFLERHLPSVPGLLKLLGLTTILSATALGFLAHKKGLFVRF
# assay.notes: MAO-B inhibition, mitochondrial portion of rat (IC50, time dependence, irreversibility), substrate PEA
# Assay type: biochemical, Sprague-Dawley rat
# condition: IC50 0 min, MAO-B (lines B..), substrate PEA, 0 min incubation, rat mitochondria

{"molecule": "C#CCNCc1cc2cc(OCc3ccccc3)ccc2[nH]1 [FA-73]", "subject.of.test": "MAO-B (Rattus norvegicus, UniProt P19643)", "IC50 (nM)": 100}

* * *

# subject.of.test: MAO-A (Rattus norvegicus)
# Construct: human and rat tissue to obtain the isolated forms of monoamine oxidase A and B; from tissue
# assay.notes: biochemical
# Format: biochemical, Sprague-Dawley rat
# condition: IC50 30 min., MAO-A (lines A..), substrate 5-HT, 30 min incubation, rat mitochondria
pIC50: −log10 of the molar value.
# pIC50 listing for each entry below

{"mol": "C=C=CCNCc1cc2cc(OCc3ccccc3)ccc2n1C", "pIC50": 7.60}
{"mol": "CC#CCNCc1cc2cc(OCc3ccccc3)ccc2[nH]1", "pIC50": 5.00}
{"mol": "C#CCN(CC#C)Cc1cc2cc(OCc3ccccc3)ccc2n1C", "pIC50": 4.51}
{"mol": "C=C=CCNCc1cc2cc(OCc3ccccc3)ccc2[nH]1", "pIC50": 6.60}
{"mol": "CC#CCN(CC#CC)Cc1cc2cc(OCc3ccccc3)ccc2[nH]1", "pIC50": 5.30}
{"mol": "C=C=CCN(CC=C=C)Cc1cc2cc(OCc3ccccc3)ccc2[nH]1", "pIC50": 5.20}
